target.entity: CDK12 (nuclear staining in CAL-120 cells) (Homo sapiens)
Construct: endogenous in cells; host or cells: CAL-120 human breast cancer cells (DSMZ ACC 459)
Sequence (Q9NYV4 whole entry): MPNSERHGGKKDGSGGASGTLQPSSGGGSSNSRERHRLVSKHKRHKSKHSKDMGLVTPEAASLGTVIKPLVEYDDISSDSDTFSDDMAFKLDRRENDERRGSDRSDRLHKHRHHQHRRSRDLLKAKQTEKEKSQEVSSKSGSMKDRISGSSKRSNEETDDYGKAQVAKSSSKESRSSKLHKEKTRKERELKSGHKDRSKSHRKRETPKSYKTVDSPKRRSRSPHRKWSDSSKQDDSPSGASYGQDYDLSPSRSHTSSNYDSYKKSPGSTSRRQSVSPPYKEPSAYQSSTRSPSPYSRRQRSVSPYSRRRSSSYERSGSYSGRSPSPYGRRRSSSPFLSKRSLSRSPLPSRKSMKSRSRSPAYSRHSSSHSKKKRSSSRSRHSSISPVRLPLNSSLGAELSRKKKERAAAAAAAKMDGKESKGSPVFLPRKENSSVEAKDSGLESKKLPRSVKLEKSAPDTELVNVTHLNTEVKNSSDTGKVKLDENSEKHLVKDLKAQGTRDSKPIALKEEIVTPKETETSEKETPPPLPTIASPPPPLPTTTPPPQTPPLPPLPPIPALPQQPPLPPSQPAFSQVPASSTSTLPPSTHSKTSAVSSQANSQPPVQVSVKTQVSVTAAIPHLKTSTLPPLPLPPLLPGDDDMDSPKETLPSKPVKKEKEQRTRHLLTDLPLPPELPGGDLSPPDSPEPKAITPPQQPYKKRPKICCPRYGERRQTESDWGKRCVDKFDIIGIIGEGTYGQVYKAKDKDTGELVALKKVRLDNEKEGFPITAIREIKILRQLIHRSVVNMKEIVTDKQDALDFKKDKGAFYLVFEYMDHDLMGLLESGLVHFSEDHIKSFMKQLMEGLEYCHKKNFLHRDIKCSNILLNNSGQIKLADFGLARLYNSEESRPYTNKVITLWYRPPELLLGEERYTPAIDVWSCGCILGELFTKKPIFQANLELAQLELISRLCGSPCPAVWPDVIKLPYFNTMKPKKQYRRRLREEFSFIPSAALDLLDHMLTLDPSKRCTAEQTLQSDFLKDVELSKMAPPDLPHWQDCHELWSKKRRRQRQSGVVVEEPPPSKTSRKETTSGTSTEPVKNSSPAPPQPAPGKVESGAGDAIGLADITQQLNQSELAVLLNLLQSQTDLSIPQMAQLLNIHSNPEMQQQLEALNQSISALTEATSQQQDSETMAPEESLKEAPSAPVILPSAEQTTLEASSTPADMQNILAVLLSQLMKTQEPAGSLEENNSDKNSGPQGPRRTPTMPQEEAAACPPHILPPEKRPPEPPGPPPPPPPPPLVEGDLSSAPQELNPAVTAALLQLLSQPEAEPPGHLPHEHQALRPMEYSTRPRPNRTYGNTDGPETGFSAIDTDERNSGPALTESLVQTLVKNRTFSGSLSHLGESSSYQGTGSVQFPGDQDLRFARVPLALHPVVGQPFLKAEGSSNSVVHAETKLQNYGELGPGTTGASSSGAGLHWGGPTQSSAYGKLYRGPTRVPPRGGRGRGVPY
Sequence (O75909 whole entry partner): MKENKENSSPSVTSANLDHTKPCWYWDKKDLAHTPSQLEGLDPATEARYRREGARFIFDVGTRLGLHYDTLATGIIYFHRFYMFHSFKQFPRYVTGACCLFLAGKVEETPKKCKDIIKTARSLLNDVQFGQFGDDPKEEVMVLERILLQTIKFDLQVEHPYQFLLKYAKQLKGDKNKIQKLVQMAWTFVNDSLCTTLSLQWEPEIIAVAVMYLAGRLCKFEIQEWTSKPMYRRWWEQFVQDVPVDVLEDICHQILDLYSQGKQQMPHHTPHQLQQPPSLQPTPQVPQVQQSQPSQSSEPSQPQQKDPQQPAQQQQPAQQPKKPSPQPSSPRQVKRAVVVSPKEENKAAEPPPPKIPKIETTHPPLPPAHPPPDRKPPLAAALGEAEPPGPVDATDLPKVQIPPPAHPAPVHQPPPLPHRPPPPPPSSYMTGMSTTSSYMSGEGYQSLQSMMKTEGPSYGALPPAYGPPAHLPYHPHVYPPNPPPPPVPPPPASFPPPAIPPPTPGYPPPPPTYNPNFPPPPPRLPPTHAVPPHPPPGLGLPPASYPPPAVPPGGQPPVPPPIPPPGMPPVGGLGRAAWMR
method: CDK12 nuclear protein level: immunofluorescence/high content analysis (CAL-120)
Assay type: cell-based
experimental.context: ratio of IC50 CDK12 high ATP kinase assay to DC50 CDK12 degradation (IF, CAL-120)
property: (IC50 CDK12 high ATP) to (Degradation DC50 CDK12) ratio

Some entries whose results are on file:
INPUT: Give (IC50 CDK12 high ATP) to (Degradation DC50 CDK12) ratio (CDK12 (nuclear staining in CAL-120 cells) (Homo sapiens)) of the following compound: `CN1C[C@@H]2C[C@H]1CN2c1nc(NCc2nc3ccccc3[nH]2)n2ncc(Br)c2n1`
OUTPUT: >1232

INPUT: Another compound to check: `CN1CC2CCC(C1)N2c1nc(NCc2nc3ccccc3[nH]2)n2ncc(Br)c2n1`
OUTPUT: >725

INPUT: Another compound to check: `CN1CCN(c2nc(NCc3nc4cc(F)c(Cl)cc4[nH]3)n3ncc(C4CC4)c3n2)CC1`
OUTPUT: >2346

***
INPUT: Give (IC50 CDK12 high ATP) to (Degradation DC50 CDK12) ratio (CDK12 (nuclear staining in CAL-120 cells) (Homo sapiens)) of the following compound: `CN1CCN(c2nc(NCc3nc4cc(Cl)ccc4[nH]3)n3ncc(Br)c3n2)CC1`
OUTPUT: >17106

INPUT: Another compound to check: `FC(F)(F)Cc1cnn2c(NCc3nc4ccccc4[nH]3)nc(N3CCOCC3)nc12.O=CO`
OUTPUT: >2310

Values were extracted from patent US20230117034A1.
